- Target entity: SARS-CoV2 spike protein S1 receptor binding domain (RBD) (SARS-CoV2, UniProt P0DTC2 319-541)
Binary label based on Kd with cut-off 50 nM: below gives true (1), not below gives false (0).

>>> label_value("COVID-19 therapeutic protein CTP-γ1 (designed binder) MKASSLADNVYNTNITKENVQNMNEEQAKTFLDKFNHEAEDLFYQSSGLGKGDFR")
"true (1)"
>>> label_value("COVID-19 therapeutic protein CTP-γ2 (designed binder) MKESSLADNVYNTNITKENVQNMNEEQAKTFLDKFNHEAEDLFYQSSGLGKGDFR")
"true (1)"
>>> label_value("COVID-19 therapeutic protein CTP-β3 (designed binder) MESELASNVYNTNITKENVQNMNEEQAKTFLDKFNHEAEDLFYQSSGLGKGDFR")
"false (0)"
>>> label_value("GEFADKLKNELAKTEEQAKTFLDKFNHEAEDLFYQSSGLGKGDFR (designed binder) [COVID-19 therapeutic protein CTP-δ1]")
"false (0)"
>>> label_value("COVID-19 therapeutic protein CTP-α3 (designed binder) MKSQLAENVYNTNITKENVQNMNEEQAKTFLDKFNHEAEDLFYQSSGLGKGDFR")
"true (1)"
>>> label_value("COVID-19 therapeutic protein CTP-β1 (designed binder) MKSELASVNYNTNITKENVQANGEEQAKTFLDKFNHEAEDLFYQSSGLGKGDFR")
"false (0)"
